- Test system: M14 melanoma
- procedure-text: NCI-60 one-dose screen, 48 h
- recorded-conditions: 10 µM unless noted
This is part of a sample that, as a whole, favours compounds with a hit. Of some 83,000 tested, about 20% had one in any assay. Activity calls are given as the source filed them. The calls were made as follows: active = growth percent below 10; inactive = the rest.
Return exactly one item of active, inactive

Answered cases to consult:
query: Call for entry N=C(N)c1ccc(-c2ccc(-c3ccccc3)s2)cc1 :
result: inactive

query: Call for entry C=C1C(=O)O[C@H]2[C@H]1CC/C(COC(=O)NCc1ccc(Cn3c(=O)sn(-c4ccc(C#N)cc4)c3=O)cc1)=C\CC[C@@]1(C)O[C@@H]21 :
result: inactive

query: Call for entry COc1ccc(-c2n[nH]c(=O)c3nc(NC(=S)Nc4ccc(Oc5ccccc5)cc4)sc23)cc1 :
result: inactive

query: Call for entry CCNC(=O)Oc1ccc(/C(=C(/CC)Cc2ccccc2)c2ccc(OCCN3CCCC3)cc2)cc1 :
result: inactive

query: Call for entry NS(=O)(=O)c1ccc(NC(=O)/C(=C\c2ccc(Cl)cc2Cl)NC(=O)c2ccccc2)cc1 :
result: inactive

Others:
query: Call for entry O=C(Nc1cc(Cl)ccc1O)c1cccc(Nc2ccnc(C(F)(F)F)c2)c1 :
result: inactive

query: Call for entry N#Cc1ccc(O)c(C2=NCC(Cc3ccccc3)O2)c1 (stereo not drawn) :
result: inactive

query: Call for entry COc1cc(Cl)c(C)cc1NC(=O)c1cc2ccccc2cc1O :
result: inactive

* * *

- Test system: MOLT-4 leukemia
- procedure-text: NCI-60 one-dose screen, 48 h (100 = growth as untreated, 0 = no growth, -100 = all killed)
- recorded-conditions: 10 µM unless noted
This is part of a sample that, as a whole, favours compounds with a hit. Of some 83,000 tested, about 20% had one in any assay.
rule met means recorded growth is 90% or above; rule not met means it is below 90%.

Answered cases to consult:
query: Given CCN1C(=O)N(CC)C2C1NN=c1s/c(=C\c3ccc(C(F)(F)F)cc3)c(=O)n12 (stereo not given) , state whether its growth is at least 90%.
result: rule not met

query: Given CCN1C(=O)N(CC)C2C1N=C(SCc1ccc(Cl)cc1)N2/N=C/C=C/c1ccccc1OC (stereo not given) , state whether its growth is at least 90%.
result: rule not met

query: Given COc1cccc(C(=O)NNc2nc(Cl)nc(Cl)n2)c1 , state whether its growth is at least 90%.
result: rule met

Turning to the following molecule.
query: Given CCOC(=O)/C=C1\S/C(=N\Nc2cc(=O)[nH]c3ccccc23)N(c2ccccc2)C1=O , state whether its growth is at least 90%.
result: rule met

* * *

- Tested on: SR leukemia
- procedure-text: NCI-60 one-dose screen, 48 h (100 = growth as untreated, 0 = no growth, -100 = all killed)
- recorded-conditions: 10 µM unless noted
- Experimental: Growth inhibition of the SR human tumor cell line is measured as a screen for anti-cancer activity. Cells are grown in 96 well plates and exposed to the test compound for 48 hours. Compounds are tested at a single concentration, which is 10^-5 M for most compounds. The reported endpoint is percent growth (GI% or GIPRCNT), where numbers from 0 - 100% represent growth inhibition, and numbers from -100% - 0 represent cell death. For example, a value of 40 represents 60% growth inhibition. […]
This is part of a sample that, as a whole, favours compounds with a hit. Of some 83,000 tested, about 20% had one in any assay.
The threshold is 20%. Values of growth beneath it are tagged T; values meeting or exceeding it are tagged F.

Answered cases to consult:
query: Check if growth falls below 20% for CN1CCN(CC(=O)Nc2ccc3ncnc(Nc4ccc(Oc5cccc(C(F)(F)F)c5)c(Cl)c4)c3c2)CC1 .
result: T

query: Check if growth falls below 20% for CC(=O)Oc1ccc(OC(C)=O)c2ccccc12 .
result: F

query: Check if growth falls below 20% for O=C(Nc1ccccc1[N+](=O)[O-])c1ccc(Cl)c(Cl)c1 .
result: F

query: Check if growth falls below 20% for NS(=O)(=O)c1ccc(NC(=O)/C(=C\c2ccc(Cl)cc2Cl)NC(=O)c2ccccc2)cc1 .
result: F

query: Check if growth falls below 20% for CC(=O)ON1CCCC(P(=O)(OCCSC(=O)C(C)(C)C)OCCSC(=O)C(C)(C)C)C1=O (configuration not stated) .
result: T

query: Check if growth falls below 20% for O=P(O)(O)OCC1OC(n2cnc3c(NCc4ccco4)ncnc32)C(O)C1O (configuration not stated) .
result: F

query: Check if growth falls below 20% for CC(=O)OC[C@]12CC[C@@H]([C@@H](C)c3nnc(-c4ccncc4)o3)[C@@H]1[C@H]1CC[C@@H]3[C@@]4(C)CC[C@H](OC(C)=O)C(C)(C)[C@@H]4CC[C@@]3(C)[C@]1(C)CC2 .
result: F

query: Check if growth falls below 20% for Cc1cc2c(cc1C)N(C(=O)CCl)CC(=O)N2 .
result: T

query: Check if growth falls below 20% for Fc1ccc(Cn2cc(CSc3nc4ccccc4o3)nn2)cc1 .
result: F

query: Check if growth falls below 20% for Cc1ccc(CNc2c3ccccc3nc3ccccc23)cc1 .
result: T

Others:
query: Check if growth falls below 20% for Nn1c(=O)c(=O)[nH]c2c(cnn2-c2ccccc2)c1=O .
result: F

query: Check if growth falls below 20% for O=C(O)[C@@H](Cc1ccc2ccccc2c1)NC(=O)n1c2ccccc2c2ccccc21 .
result: F

query: Check if growth falls below 20% for Cc1cc(Nc2ccc(C(=O)N3CCCC3)cc2)nc(NCCCNc2ccnc3cc(Cl)ccc23)n1 .
result: T
